- EXPERIMENTAL SYSTEM: CXCL6
- ASSAY REMARKS: BLI; previously obtained data

- BINDER: "P1156 (other) ADDDNELFTVQYCGMNCTKDEGGTWTGCTGKKEGCKCYHESGKNYGLCLSTEYTDFSQYGNPSDSEIEAAKPKRSDTLSH"
  Kd, nM: 62.7
